# EXPERIMENTAL_TARGET: UniProt:Q9NWZ3
# TEST_DESCRIPTION: biochemical
# Assay type: biochemical
# CONDITION_SUMMARY: IRAK4 enzyme, TR-FRET, 500 μM ATP
READOUT_NAME: IC50 (nM)

- COMPOUND: "CN(C(=O)CNC(=O)c1cnc(-c2ccc3cc(C#N)cnn23)cc1NC12CCC(O)(CC1)CC2)C(C)(C)C [Example 814]"
  EXPERIMENTAL_TARGET: "UniProt:Q9NWZ3"
  LIMIT_QUALIFIER: "<"
  OBS_VALUE: 1
- COMPOUND: "COC(=O)NC[C@H]1C[C@H](Nc2cc(-c3ccc4cccnn34)ncc2C(=O)NC[C@@H](F)C(C)(C)O)C1 [Example 818]"
  EXPERIMENTAL_TARGET: "UniProt:Q9NWZ3"
  LIMIT_QUALIFIER: "="
  OBS_VALUE: 4
- COMPOUND: "CC(C)Nc1cc(-c2ccc3cc(C#N)cnn23)ncc1C(=O)N[C@@H]1CCC[C@@H](O)C1 [Example 192]"
  EXPERIMENTAL_TARGET: "UniProt:Q9NWZ3"
  LIMIT_QUALIFIER: "="
  OBS_VALUE: 5
- COMPOUND: "CC(C)Nc1cc(-c2ccc3cc(C#N)cnn23)ncc1C(=O)NCC1CCS(=O)(=O)CC1 [Example 121]"
  EXPERIMENTAL_TARGET: "UniProt:Q9NWZ3"
  LIMIT_QUALIFIER: "="
  OBS_VALUE: 7
- COMPOUND: "CC(=O)NC1CCN(c2ccc(Nc3cc(-c4ccc5cc(C#N)cnn45)ncc3C(=O)NC[C@@H](F)C(C)(C)O)cn2)CC1 [Example 880]"
  EXPERIMENTAL_TARGET: "UniProt:Q9NWZ3"
  LIMIT_QUALIFIER: "<"
  OBS_VALUE: 1
- COMPOUND: "[2H]C([2H])([2H])OC(=O)NC12CCC(Nc3cc(-c4ccc5cc(C#N)cnn45)ncc3C(=O)NC[C@@H](F)C(C)(C)O)(CC1)CC2 [Example 283]"
  EXPERIMENTAL_TARGET: "UniProt:Q9NWZ3"
  LIMIT_QUALIFIER: "="
  OBS_VALUE: 1
- COMPOUND: "COC(=O)NC12CCC(Nc3cc(-c4ccc5cc(C#N)cnn45)ncc3C(=O)NCC#N)(CC1)CC2 [Example 267]"
  EXPERIMENTAL_TARGET: "UniProt:Q9NWZ3"
  LIMIT_QUALIFIER: "<"
  OBS_VALUE: 1

---

Measured IC50 values are reported for all entries that follow.
# EXPERIMENTAL_TARGET: IRAK4 enzyme (Homo sapiens (Human))
# Sequence (Q9NWZ3 whole entry): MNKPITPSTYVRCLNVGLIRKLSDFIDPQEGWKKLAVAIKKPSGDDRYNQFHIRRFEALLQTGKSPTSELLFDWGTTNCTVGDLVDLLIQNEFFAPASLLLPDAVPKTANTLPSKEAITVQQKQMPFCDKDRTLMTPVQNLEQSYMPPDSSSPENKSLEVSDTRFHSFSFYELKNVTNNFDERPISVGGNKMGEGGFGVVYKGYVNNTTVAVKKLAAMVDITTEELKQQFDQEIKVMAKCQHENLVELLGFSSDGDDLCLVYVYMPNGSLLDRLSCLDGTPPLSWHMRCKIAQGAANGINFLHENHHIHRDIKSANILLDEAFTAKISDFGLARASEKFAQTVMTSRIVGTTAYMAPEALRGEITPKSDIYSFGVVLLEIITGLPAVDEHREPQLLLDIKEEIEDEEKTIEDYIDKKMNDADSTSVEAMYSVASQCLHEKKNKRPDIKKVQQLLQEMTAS
# TEST_DESCRIPTION: biochemical
# Format: biochemical
# CONDITION_SUMMARY: IRAK4 enzyme, TR-FRET, 500 μM ATP
READOUT_NAME: IC50 (nM)

- MOLECULE: "CNC(=O)c1cnc(-c2ccc3cc(C#N)cnn23)cc1NC12CCC(O)(CC1)CC2"
  EXPERIMENTAL_TARGET: "IRAK4 enzyme (Homo sapiens (Human))"
  LIMIT_QUALIFIER: "="
  OBS_VALUE: 1
- MOLECULE: "CC(C)OC(=O)N[C@H]1CC[C@H](Nc2cc(-c3ccc4cc(C#N)cnn34)ncc2C(=O)NC[C@@H](F)C(C)(C)O)CC1"
  EXPERIMENTAL_TARGET: "IRAK4 enzyme (Homo sapiens (Human))"
  LIMIT_QUALIFIER: "="
  OBS_VALUE: 2
- MOLECULE: "CC(C)(O)[C@H](F)CNC(=O)c1cnc(-c2ccc3cc(C#N)cnn23)cc1NC1CNC(=O)C1 (stereo partly shown)"
  EXPERIMENTAL_TARGET: "IRAK4 enzyme (Homo sapiens (Human))"
  LIMIT_QUALIFIER: "<"
  OBS_VALUE: 1
- MOLECULE: "CC(C)(C)NC(=O)CNC(=O)c1cnc(-c2ccc3cc(C#N)cnn23)cc1NC12CCC(O)(CC1)CC2"
  EXPERIMENTAL_TARGET: "IRAK4 enzyme (Homo sapiens (Human))"
  LIMIT_QUALIFIER: "<"
  OBS_VALUE: 1
- MOLECULE: "Cn1cncc1CNC(=O)c1cnc(-c2ccc3cc(C#N)cnn23)cc1NC12CCC(O)(CC1)CC2"
  EXPERIMENTAL_TARGET: "IRAK4 enzyme (Homo sapiens (Human))"
  LIMIT_QUALIFIER: "="
  OBS_VALUE: 4
- MOLECULE: "Cn1cncc1-c1ccc(Nc2cc(-c3ccc4cc(C#N)cnn34)ncc2C(=O)NC[C@@H](F)C(C)(C)O)cc1"
  EXPERIMENTAL_TARGET: "IRAK4 enzyme (Homo sapiens (Human))"
  LIMIT_QUALIFIER: "<"
  OBS_VALUE: 1
- MOLECULE: "CN(C)C(=O)O[C@H]1CC[C@H](Nc2cc(-c3ccc4cc(C#N)cnn34)ncc2C(=O)NC[C@@H](F)C(C)(C)O)CC1"
  EXPERIMENTAL_TARGET: "IRAK4 enzyme (Homo sapiens (Human))"
  LIMIT_QUALIFIER: "="
  OBS_VALUE: 132
